The reported numbers originate from patent US20190040149A1.

binders and their reported pKd
- TARGET_UNDER_TEST: T1, murine PD-1 (soluble antigen of the MSD assay) (mouse, UniProt Q02242 25-169, limits assumed)
- T1 construct: also called mouse PD-1
- T1 sequence: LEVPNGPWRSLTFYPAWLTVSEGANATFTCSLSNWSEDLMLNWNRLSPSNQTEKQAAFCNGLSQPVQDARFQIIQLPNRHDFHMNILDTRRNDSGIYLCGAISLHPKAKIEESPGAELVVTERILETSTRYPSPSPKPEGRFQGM
- ASSAY_REMARKS: MSD solution equilibrium titration, monovalent KD
Scale explanation: pKd corresponds to minus log10 of a concentration expressed in moles per litre.

BINDER	REPORTED_MEASUREMENT
Antibody C, IgG1 format expressed in yeast (antibody, V domains shown, Tested in IgG1 format, expressed in yeast) VH: QVQLVQSGAEVKKPGASVKVSCKASGYTFTAQYMHWVRQAPGQGLEWMGIINPSGGETGYAQKFQGRVTMTRDTSTSTVYMELSSLRSEDTAVYYCAKEGVADGYGLVDVWGQGTMVTVSS VL: EIVLTQSPATLSLSPGERATLSCRASQSVSSYLAWYQQKPGQAPRLLIYDASKRATGIPARFSGSGSGTDFTLTISSLEPEDFAVYYCDQRNNWPLTFGGGTKVEIK	8.72

Need pKd of Antibody B, IgG1 format expressed in yeast (antibody, V domains shown, Tested in IgG1 format, expressed in yeast) VH: QVQLVQSGAEVKKPGASVKVSCKASGYTFEGYYMHWVRQAPGQGLEWMGIINPEGGETSYAQKFQGRVTMTRDTSISTAYMELSRLRSDDTAVYYCAKEGVADGYGLVDVWGQGTMVTVSS VL: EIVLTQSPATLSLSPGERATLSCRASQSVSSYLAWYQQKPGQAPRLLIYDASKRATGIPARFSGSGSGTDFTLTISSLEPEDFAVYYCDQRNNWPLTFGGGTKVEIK , thanks.
8.57

Need pKd of Antibody F, IgG1 format expressed in yeast (antibody, V domains shown, Tested in IgG1 format, expressed in yeast) VH: QVQLVQSGAEVKKPGASVKVSCKASGYTFSAYYMHWVRQAPGQGLEWMGIINPDGGSTGYAQKFQGRVTMTRDTSTSTVYMELSSLRSEDTAVYYCAKEGVADGYGLVDVWGQGTMVTVSS VL: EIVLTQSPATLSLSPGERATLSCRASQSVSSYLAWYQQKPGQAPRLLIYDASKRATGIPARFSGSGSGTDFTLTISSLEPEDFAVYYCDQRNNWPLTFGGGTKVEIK , thanks.
8.92

Need pKd of Antibody E, IgG1 format expressed in yeast (antibody, V domains shown, Tested in IgG1 format, expressed in yeast) VH: QVQLVQSGAEVKKPGASVKVSCKASGYTFTSNYMHWVRQAPGQGLEWMGIINPSEGSTGYAQKFQGRVTMTRDTSTSTVYMELSSLRSEDTAVYYCAKEGVADGYGLVDVWGQGTMVTVSS VL: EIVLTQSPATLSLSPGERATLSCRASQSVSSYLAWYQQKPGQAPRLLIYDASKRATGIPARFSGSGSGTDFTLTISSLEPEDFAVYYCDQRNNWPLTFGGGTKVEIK , thanks.
8.96

Need pKd of Antibody A, IgG1 format expressed in yeast (antibody, V domains shown, Tested in IgG1 format, expressed in yeast) VH: QVQLVQSGAEVKKPGASVKVSCKASGYTFTSYYMHWVRQAPGQGLEWMGIINPSGGSTSYAQKFQGRVTMTRDTSTSTVYMELSSLRSEDTAVYYCAKEGVADGYGLVDVWGQGTMVTISS VL: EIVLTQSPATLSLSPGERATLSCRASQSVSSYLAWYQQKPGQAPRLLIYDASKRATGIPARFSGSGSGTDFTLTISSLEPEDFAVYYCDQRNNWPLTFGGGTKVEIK , thanks.
8.02

Need pKd of Antibody D, IgG1 format expressed in yeast (antibody, V domains shown, Tested in IgG1 format, expressed in yeast) VH: QVQLVQSGAEVKKPGASVKVSCKASGYTFEKYYMHWVRQAPGQGLEWMGIINPDGGSTGYAQKFQGRVTMTRDTSTSTVYMELSSLRSEDTAVYYCAKEGVADGYGLVDVWGQGTMVTVSS VL: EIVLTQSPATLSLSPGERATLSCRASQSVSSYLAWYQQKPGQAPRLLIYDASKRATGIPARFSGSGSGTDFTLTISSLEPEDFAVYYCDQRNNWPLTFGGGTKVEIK , thanks.
8.64
